# Test Description: Cell Titer-fluor cell activity assay in HCV-1b replicon cells (CC50)
# Type: cell-based
Property Label: CC50 at 3 days

Sample records with CC50 at 3 days:
QUERY: Please give measured CC50 at 3 days of the following entry: COC(=O)N[C@H](C(=O)N1CCC[C@H]1c1ncc(-c2ccc(-c3ccc(-c4cnc([C@H]5C6CCC(C6)[C@@H]5C(=O)NCc5ccccc5)[nH]4)cc3)cc2)[nH]1)C(C)C (some centres unmarked)
RESULT: > 1 nM

QUERY: Please give measured CC50 at 3 days of the following entry: COC(=O)N[C@H](C(=O)N1CCC[C@H]1c1ncc(-c2ccc(-c3ccc(-c4cnc(C5C6CCC(C6)[C@@H]5C(=O)Nc5ccccc5)[nH]4)cc3)cc2)[nH]1)[C@@H](C)OC (some centres unmarked)
RESULT: > 1 nM

QUERY: Please give measured CC50 at 3 days of the following entry: COC(=O)N[C@H](C(=O)N1CCC[C@H]1c1ncc(-c2ccc(-c3ccc(-c4cnc([C@@H]5C6CCC(C6)[C@H]5C(=O)NCCc5ccncc5)[nH]4)cc3)cc2)[nH]1)C(C)C (some centres unmarked)
RESULT: > 1 nM

New cases:
QUERY: Please give measured CC50 at 3 days of the following entry: COC(=O)N[C@H](C(=O)N1CCC[C@H]1c1ncc(-c2ccc(-c3ccc(-c4cnc([C@H]5C6CCC(C6)[C@@H]5C(=O)NCc5cncnc5)[nH]4)cc3)cc2)[nH]1)C(C)C (some centres unmarked)
RESULT: > 1 nM

QUERY: Please give measured CC50 at 3 days of the following entry: COC(=O)N[C@H](C(=O)N1CCCC1c1ncc(-c2ccc(-c3ccc(-c4[nH]c([C@@H]5CCCN5C(=O)[C@@H](NC(=O)OC)C(C)C)c5c4CCC5)cc3)cc2)[nH]1)C(C)C (some centres unmarked)
RESULT: > 10 nM

----------
# Test system: HCV genotype 1b (HCV-1b) replicon cells
# Test Description: HCV genotype 1b replicon luciferase assay (EC50)
# Assay type: cell-based, hepatitis C virus genotype 1b (Con1 clone)
# Cond: 3 days, luciferase (Bright-Glo)
# Experimental: The EC50 and CC50 values of anti-HCV compounds were determined by HCV genotype 1a (HCV-1a) and 1B (HCV-1b) stable transfer replication (replicon) cells. The source of genotype 1a replicon is H77 clones containing K1691R, K2040R and S2204I adaptive mutations. […] 3) suspending cells in each T150 culture flask with 10-15 mL culture medium, absorbing 0.1 mL liquid and diluting 2 times by trypan blue solution as counted. […]
pEC50: −log10 of the molar value.
The following compounds are shown together with reported pEC50 values.

QUERY: Please give measured pEC50 of the following entry: COC(=O)N[C@H](C(=O)N1CCC[C@H]1c1ncc(-c2ccc(-c3ccc(-c4cnc(C5C6CCC(C6)[C@@H]5C(=O)NC(C)c5cnccn5)[nH]4)cc3)cc2)[nH]1)[C@@H](C)OC (single isomer, unassigned) [AA_281_C]
RESULT: 9.00 to 10.00

QUERY: Please give measured pEC50 of the following entry: COC(=O)N[C@H](C(=O)N1CCC[C@H]1c1ncc(-c2ccc(-c3ccc(-c4cnc(C5C6CCC(C6)[C@@H]5C(=O)N[C@H](C)c5cccnc5)[nH]4)cc3)cc2)[nH]1)[C@@H](C)OC (single isomer, unassigned) [AA_253_A]
RESULT: 9.00 to 10.00

QUERY: Please give measured pEC50 of the following entry: COC(=O)N[C@H](C(=O)N1CCC[C@H]1c1ncc(-c2ccc(-c3ccc(-c4cnc(C5C6CCC(C6)[C@@H]5C(=O)N[C@H](c5cccnc5)C(C)C)[nH]4)cc3)cc2)[nH]1)[C@@H](C)OC (stereo partly drawn)
RESULT: 10.00 to 12.00

QUERY: Please give measured pEC50 of the following entry: COC(=O)NC(C(=O)N1CCCC1c1[nH]c(-c2ccc(-c3ccc(-c4cnc([C@@H]5CCCN5C(=O)[C@@H](NC(=O)OC)C(C)C)[nH]4)cc3)cc2)c2c1CCC2)C1CCOC1 (single isomer, unassigned) [AG_025_B]
RESULT: 10.00 to 12.00

New cases:
QUERY: Please give measured pEC50 of the following entry: COC(=O)N[C@H](C(=O)N1CCC[C@H]1c1ncc(-c2ccc(-c3ccc(-c4cnc(C5C6CCC(C6)[C@H]5C(=O)N(NC(=O)OC)C(C)C)[nH]4)cc3)cc2)[nH]1)C(C)C (stereo partly drawn) [AA_016]
RESULT: 9.00 to 10.00

QUERY: Please give measured pEC50 of the following entry: COC(=O)NC(C(=O)N1CCCC1c1[nH]c(-c2ccc(-c3ccc(-c4cnc([C@@H]5CCCN5C(=O)[C@@H](NC(=O)OC)C(C)C)[nH]4)cc3)cc2)c2c1CCC2)C1CCOC1 (single isomer, unassigned) [AG_025_C]
RESULT: 9.00 to 10.00
